test system: SK-MEL-28 melanoma; assay: NCI tumour cell line growth inhibition, 48 h
PROPERTY_LABEL: GI50

* CNC(=O)c1c(NC(=O)c2ccc(C(C)C)cc2)sc2c1CCC(=O)C2 | 748 nM
* Cc1ccc(C(CC(=O)c2ccccc2)C(C(=O)c2ccccc2)C(c2ccc(C)cc2)C2C(=O)NC(=S)NC2=O)cc1 (stereo unspecified) | > 50000 nM
* O=C(c1ccncc1)N1CCN(C2=NS(=O)(=O)c3ccccc3N2c2ccccc2)CC1 | 15600 nM
* O=C(O)CP(=O)(c1ccccc1)c1ccccc1.O=C(O)CP(=O)(c1ccccc1)c1ccccc1.[Cd] | 17900 nM
* OCCN1CCN(c2nc(Nc3ccc(-c4nc5ccccc5[nH]4)cc3)c3cn[nH]c3n2)CC1 | 1650 nM
* CCc1cccc(CC)c1NC(=O)c1ccn2c1CCc1cnc(Nc3ccc(N4CCN(C)CC4)cc3OC)nc1-2 | 1760 nM
* Cc1nc2sc(C(=O)Nc3cccc(Cl)c3C)c(N)c2cc1C(=O)c1ccccc1 | 1450 nM
* [O]=[W](=[O])([OH])[OH] | > 100000 nM
* Cc1csc(-c2ccc3c(c2)COC3(CCCN(C)C)c2ccc(F)cc2)c1 (stereo unspecified) | 1770 nM
* CC#CC(=O)N[C@H]1CCCN(c2c(F)cc(C(N)=O)c3[nH]c(C)c(C)c23)C1 | 17400 nM
* CCNC(=O)c1ccc2c(c1)nc(-c1ccc(Cl)cc1)n2-c1cc(C(C)(C)C)[nH]n1 | 2780 nM
* c1ccc(C2=NN[C@H](c3cn(-c4ccccc4)nc3-c3ccccc3)C2)cc1 | 4890 nM
* Cc1nn(-c2ccccc2)c(C)c1/C=N/N1CCN(Cc2ccccc2)CC1 | 80500 nM
* C[CH2][Sn]([Cl])([CH2]C)[CH2]C | 1670 nM
* O=C1C(Cl)=C(Nc2ccccn2)C(=O)c2ccccc21 | 2090 nM
* CC(C)NCCCCCNc1cc(O)cc2cccnc12 | > 100000 nM

----------
system: PC-3 prostate; assay: NCI tumour cell line growth inhibition, 48 h
PROPERTY_LABEL: TGI

- COc1cc(C2C(C(=O)OCc3ccccc3)=C(C)NC(C)=C2C(=O)OCc2ccccc2)cc(OC)c1OC: > 100 µM
- CN(C)C=Nc1c(Br)cc(Br)c2nonc12: > 100 µM
- COc1ccc(/C(Cl)=C(\CNc2ccccn2)c2ccccc2)cc1OC: > 100 µM

----------
system: HL-60(TB) leukemia; test: NCI tumour cell line growth inhibition, 48 h
PROPERTY_LABEL: log10(TGI) (log10 of the value in µM)

• Cc1cc(=O)[nH]c(NN2C(Cl)C(=O)C2c2c(O)ccc3ccccc23)n1 (stereo not given) = 1.69
• Cc1cccc2c(N)c3cccc(C(=O)NCCN4CCOCC4)c3nc12 = 0.08
• CCCCCCCSCC1OC(n2cnc3c(N)ncnc32)C(O)C1O (stereo not given) = 1.44
• CC#CC(=O)N[C@H]1CCCN(c2c(F)cc(C(N)=O)c3[nH]c(C)c(C)c23)C1 = 1.66
• C=CCCCCn1c2ccccc2c2c(C)c3c[n+](C)ccc3c(C)c21 = -0.04
• Nc1nc(Cl)nc2c1ncn2C1CCC(COP(=O)(O)OP(=O)(O)OP(=O)(O)O)O1 (stereo not given) = 1.80
• COc1ccc(CCN2COc3ccc4ccc(=O)oc4c3C2)cc1OC = 1.62
• CN1CCc2cc(O)c3cc2C1Cc1ccc(cc1)Oc1cc(ccc1O)CC1c2c(cc4c(c2O3)OCO4)CCN1C (stereo not given) = 1.59
• O=C(Nc1cccc(-n2cc(-c3ccncc3)c(-c3ccc(O)c(Cl)c3)n2)c1)c1ccc(N2CCOCC2)c(C(F)(F)F)c1 = 0.50
• CCC[CH2][Ge]([CH2]CCC)([CH2]CCC)[O]C(=O)C(OC(C)=O)c1ccccc1 (stereo not given) = 0.32

----------
system: K-562 leukemia; assay: NCI tumour cell line growth inhibition, 48 h; in the data active = GI50 below about 0.43 µM; inactive = the rest
Possible outcomes: active, inactive

• Cc1ccc(C(CC(=O)c2ccccc2)C(C(=O)c2ccccc2)C(c2ccc(C)cc2)C2C(=O)NC(=S)NC2=O)cc1 (stereo unspecified) = inactive
• O=C(c1ccncc1)N1CCN(C2=NS(=O)(=O)c3ccccc3N2c2ccccc2)CC1 = inactive
• COc1ccc2cc(C(=O)/C=C/c3ccco3)ccc2c1 = inactive
• CC(=O)Nc1ccc(S(=O)(=O)c2ccc(NC(C)=O)cc2)cc1 = inactive
• C/C=C1\C[C@@H]2C(OC)Nc3cc(O)c(OC)cc3C(=O)N2C1 (stereo partly specified) = active
• COc1cc([N+](=O)[O-])c(OC)cc1-c1nc2n(c1/C(N)=N/C(=N)N)CCS2 = inactive

----------
test system: SK-OV-3 ovarian; assay: NCI tumour cell line growth inhibition, 48 h
# Lookup of reported TGI keyed by entry
PROPERTY_LABEL: TGI

• N#Cc1c(-c2ccccc2)c(C#N)c(=S)n(C2OCC(O)C(O)C2O)c1N (centres undefined) = > 100 µM
• COc1ccc(NC(=O)CC(=O)n2nc(-c3ccccc3)c(N=Nc3ccccc3C)c2-c2ccccc2)cc1 = 36.3 µM
• ClCCCC1COc2ccccc2O1 (centres undefined) = > 100 µM
• CC1=C(c2ccc(C)cc2)NC(=S)C(C)C(c2ccc(C)cc2)=N1 (centres undefined) = > 100 µM
• COC(=O)c1cc(NC(=O)CN(CCN(CC(=O)O)CC(=O)Nc2ccc(O)c(C(=O)OC)c2)CC(=O)O)ccc1O = > 100 µM
• O=C(Nc1ccc(O)c(NS(=O)(=O)c2ccc(F)cc2)c1)c1ccc(-c2ccccc2)cc1 = 44.2 µM
• O=[N+]([O-])c1cc(C(F)(F)F)ccc1S(=O)(=O)N[C@@H]1CCCC[C@H]1NS(=O)(=O)c1ccc(C(F)(F)F)cc1[N+](=O)[O-] = 71.7 µM
• CS(=O)(=O)c1ccc(-c2[nH]c3ccc(F)cc3c2/C=N/NC(N)=S)cc1 = > 100 µM
• COc1ccc(C(=O)C(CC2C(=O)CC(C)(C)C(C(=O)C(=O)Nc3c(C)cccc3C)C2=O)c2ccc(OC)cc2)cc1 (centres undefined) = > 100 µM

----------
We begin with a simple list: items and their reported TGI.
test system: SF-295 CNS; assay: NCI tumour cell line growth inhibition, 48 h
PROPERTY_LABEL: TGI (µM)

* C=CCCC(O)c1ccc(CCCCCCCCCCC)o1 (stereo unspecified) | 30.4
* Cc1csc(-c2ccc3c(c2)COC3(CCCN(C)C)c2ccc(F)cc2)c1 (stereo unspecified) | 3.52
* COc1ccc(NC(=O)CC(=O)n2nc(-c3ccccc3)c(N=Nc3ccccc3C)c2-c2ccccc2)cc1 | 45.6
* CCOC1=C2C(C)(CCC3[C@@]4(C)C=CC(=O)C(C)(C)C4CC(O)[C@@]23C)C(c2ccoc2)C1=O (stereo partly specified) | 46.5
* O=C1c2ccccc2CCC1(Br)Br | 28
* Cc1ccc(C(=O)c2[nH]c(Nc3ccc(Cl)cc3)c(C(=S)Nc3ccccc3)c2N)cc1 | 5.27
* CCCCCCCCCCCCCCCCNc1ccc2c(c1)OCCOCCOCCOCCO2 | 7.94
* O=[N+]([O-])c1cc([N+](=O)[O-])c(C(Cl)C(Cl)c2ccccc2)cc1C(Cl)C(Cl)c1ccccc1 (stereo unspecified) | 5.17
* C/C=C/C=C\C(=O)C1c2cccc(O)c2C(=O)c2c(O)cc(C)cc21 (stereo unspecified) | 2.25

----------
compounds and their reported TGI
tested on: OVCAR-8 ovarian; assay: NCI tumour cell line growth inhibition, 48 h
PROPERTY_LABEL: TGI

- COC(=O)C(CCSc1ccccc1)C(=O)OC: > 100 µM
- Cc1ccc(C)c(N2C(=O)C(=O)c3c(C)ccc(C)c32)c1: 51.5 µM
- CN(C)C=Nc1c(Br)cc(Br)c2nonc12: > 100 µM
- Cc1n(-c2ccccc2)c2c([n+]1Cc1ccc([N+](=O)[O-])cc1)C(=O)c1ccccc1C2=O: 6.43 µM
- Cc1cc(=O)[nH]c(NN2C(Cl)C(=O)C2c2c(O)ccc3ccccc23)n1 (configuration not stated): > 100 µM
- CC1=C2c3ccccc3N(S(=O)(=O)c3ccccc3)[C@H]2[C@H](C(=O)N2C3CC4CC[C@@]3(CS2(=O)=O)C4(C)C)CC1 (some centres not stated): > 100 µM
- NN/C(=N\S(=O)(=O)c1cccc2nsnc12)Nc1ccc(Cl)cc1: > 100 µM
- Cc1ccc(Nc2cc(=O)[nH]c(=O)[nH]2)cc1CS: > 100 µM
- N#C/C(=C\c1ccc([N+](=O)[O-])s1)c1nc2cc(Br)ccc2s1: 0.805 µM
- CC(C)NCCCCCNc1cc(O)cc2cccnc12: > 100 µM
- O=C(Nc1ccc(O)c(NS(=O)(=O)c2ccc(F)cc2)c1)c1ccc(-c2ccccc2)cc1: > 100 µM
- COc1ccc(CCN2COc3ccc4ccc(=O)oc4c3C2)cc1OC: > 100 µM
- O=C1C(Cl)=C(Nc2cccc(O)c2)C(=O)N1c1ccc(Cl)cc1Cl: 64.2 µM
- CN1CCN(CCCOc2ccc3nc(Nc4ccc(C(F)(F)F)c(Cl)c4)ccc3c2)CC1: 4.64 µM
- CCN(CC)c1nc(=O)c(C(=O)C(C)(C)C)c(C(C)(C)C)o1: > 100 µM
- O=C1CSC(c2ccccc2[N+](=O)[O-])N1c1ccc(-n2c(-c3ccccc3)nc3ccccc3c2=O)cc1 (configuration not stated): > 100 µM
- CCCCC1=CC1(C#N)[N+](=O)[O-] (configuration not stated): > 100 µM
- O=C(CC(=O)c1cccc([N+](=O)[O-])c1)C(=O)Nc1nc([N+](=O)[O-])cs1: > 100 µM
- Cc1cc(O)c(O)c(Oc2cc(C)cc(O)c2O)c1: 45.1 µM
- CC(=O)OC1CC(C)c2c(Cl)ncnc21 (configuration not stated): > 100 µM
- COc1cccc(N2C(=O)[C@H]3[C@H]4CC(C(C)(C)C)CC[C@H]4c4c([nH]c5ccccc45)[C@H]3C2=O)c1 (some centres not stated): 29.7 µM
- Cc1nc2sc(C(=O)Nc3cccc(Cl)c3C)c(N)c2cc1C(=O)c1ccccc1: > 50 µM
- CCCC(=O)Nc1ncnc2c1ncn2C1OC2COP(=O)(O)OC2C1OC(=O)CCC (configuration not stated): > 1000 µM
- O=C(/C=C/c1cccs1)c1ccc(Cl)s1: > 100 µM
- COCN1C(=O)[C@@H]2CCCN2C(=O)c2cc(Cl)ccc21: > 100 µM
- O=c1c2ccccc2n2n1Cc1ccccc1C2: > 100 µM
- O=C(c1ccncc1)N1CCN(C2=NS(=O)(=O)c3ccccc3N2c2ccccc2)CC1: > 100 µM
- CNC(=O)OCc1cc2ccncc2c2c1[nH]c1ccccc12: > 100 µM
- CCC[CH2][Ge]([CH2]CCC)([CH2]CCC)[O]C(=O)C(OC(C)=O)c1ccccc1 (configuration not stated): 22.8 µM
- CC(C)N(C(=O)c1ccc(NCc2cc(O)ccc2O)cc1)C(C)C: 35.4 µM
- Cc1cn(C2CC(N=[N+]=[N-])C(C(=O)O)O2)c(=O)[nH]c1=O (configuration not stated): > 100 µM
- CCOc1ccc(N=Nc2c(-c3ccccc3)nn(C(=O)CC(=O)Nc3cccc(C)c3)c2-c2ccccc2)cc1: > 100 µM
- COc1ccc(C(=O)C(CC2C(=O)CC(C)(C)C(C(=O)C(=O)Nc3c(C)cccc3C)C2=O)c2ccc(OC)cc2)cc1 (configuration not stated): > 100 µM
- COc1cc2c3c(c1OCc1ccccc1)NCCC3NCC2 (configuration not stated): > 100 µM
- O=c1[nH]c(=O)n(C2OC(CO)C(O)C2O)cc1OCc1ccccc1 (configuration not stated): > 100 µM
- CC(=O)O[C@]12CCCCC1C1(O)C(O)CCCC[C@H]12 (some centres not stated): > 100 µM
- COCO[C@@H]1CC2C=Nc3cc(OCc4ccccc4)c(OC)cc3C(=O)N2C1 (some centres not stated): 6.52 µM
- CCCCCCCCCCNC(=S)OCCCC: > 100 µM
- C=CCCCCn1c2ccccc2c2c(C)c3c[n+](C)ccc3c(C)c21: 1.28 µM
- CCCN(CCC)c1ccc(/C=N/NC(=O)c2cccnc2)cc1: > 100 µM
- CN/N=C(/CC(=O)c1sc(-n2nc(-c3ccccc3)cc2-c2ccccc2)nc1C)C(=O)Nc1ccc(Cl)c(Cl)c1: > 100 µM
- O=C1Cc2c(-c3ccccc3)cc(-c3ccc4ccccc4c3)nc2-c2ccccc2N1: 4.9 µM
